Biological target: T1, human TREM2 expressed on cells (human, UniProt Q9NZC2 19-230)
T1 sequence: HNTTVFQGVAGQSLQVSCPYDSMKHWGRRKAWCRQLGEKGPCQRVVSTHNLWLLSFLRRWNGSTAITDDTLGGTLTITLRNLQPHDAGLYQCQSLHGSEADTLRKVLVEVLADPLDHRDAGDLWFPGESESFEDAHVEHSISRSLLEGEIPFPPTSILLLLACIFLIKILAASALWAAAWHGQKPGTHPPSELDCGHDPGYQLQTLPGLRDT
Experiment: cell-based or functional assay
reported.endpoint: Mac viability (AUC)
Lab book: enter the figure in AUC, no units written.

Mac viability (AUC) for AL2p-57 (antibody, V domains shown, Fab and IgG formats under one id) VH: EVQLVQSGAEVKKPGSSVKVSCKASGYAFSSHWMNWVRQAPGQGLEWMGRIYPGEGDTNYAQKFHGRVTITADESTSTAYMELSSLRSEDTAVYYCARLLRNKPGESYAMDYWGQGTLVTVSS VL: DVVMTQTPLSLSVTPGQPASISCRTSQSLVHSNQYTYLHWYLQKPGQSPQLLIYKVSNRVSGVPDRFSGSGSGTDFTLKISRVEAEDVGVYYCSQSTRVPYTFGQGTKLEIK is -3560
